Biological target: THR beta (Homo sapiens, UniProt P10828)
Construct: expressed in transfected cells; host or cells: HEK293T (ATCC CRL-3216)
Assay: HEK293T THR beta/RXR luciferase reporter assay (Assay 2)
Type: cell-based
Conditions: THR-beta, HEK293T reporter assay; read-out: Activity category Assay 2 (EC50, THR-beta agonist)
pEC50: −log10 of the molar value.
readout name: pEC50

CC(C)/C=C1\C(=O)Nc2ccc(Oc3c(Cl)cc(-n4nc(N)c(=O)[nH]c4=O)cc3Cl)cc21 [Compound 147] = > 7.30
Nc1nn(-c2cc(Cl)c(Oc3cc(-c4cccc(F)c4)c(=O)[nH]n3)c(Cl)c2)c(=O)[nH]c1=O [Compound 69] = 6.60 to 7.30
N#Cc1nn(-c2cc(Cl)c(Oc3ccc4[nH]cc(CC5CC5)c4c3)c(Cl)c2)c(=O)[nH]c1=O [Compound 50] = 6.60 to 7.30
Nc1nn(-c2cc(Cl)c(Oc3cc(Cc4ccc(O)cn4)c(=O)[nH]n3)c(Cl)c2)c(=O)[nH]c1=O [Compound 161] = 5.00 to 6.00
CC(c1c[nH]c2ccc(Oc3c(Cl)cc(-n4nc(C#N)c(=O)[nH]c4=O)cc3Cl)cc12)C(F)(F)F (stereo not drawn) [Compound 45] = 6.60 to 7.30

I'm hoping you can list pEC50 for every compound here, please.
1. Cc1cc(-n2nc(C#N)c(=O)[nH]c2=O)cc(C)c1Cc1ccc2c(c1)C1(CC1)C(=O)N2 [Compound 148]
2. Nc1nn(-c2cc(Cl)c(Oc3cc(C4CCc5ccccc54)c(=O)[nH]n3)c(Cl)c2)c(=O)[nH]c1=O (stereo not drawn) [Compound 156]

1. 5.00 to 6.00
2. 6.60 to 7.30

I'm hoping you can list pEC50 for every compound here, please.
1. Nc1nn(-c2cc(Cl)c(Oc3cc([C@H]4C[C@H](O)C4)c(=O)[nH]n3)c(Cl)c2)c(=O)[nH]c1=O [Compound 88-A]
2. N#Cc1nn(-c2cc(Cl)c(Oc3ccc4[nH]ccc4c3)c(Cl)c2)c(=O)[nH]c1=O [Compound 47]
3. Nc1nn(-c2cc(Cl)c(Oc3n[nH]c(=O)cc3-c3ccc4c(c3)CCCC4)c(Cl)c2)c(=O)[nH]c1=O [Compound 72-A]

["< 5.00", "5.00 to 6.00", "6.60 to 7.30"]

I'm hoping you can list pEC50 for every compound here, please.
1. Cc1cc(-n2nc(N)c(=O)[nH]c2=O)cc(C)c1Cc1ccc2[nH]c(=O)n(C(C)C)c2c1 [Compound 149]
2. O=c1cc(-c2ccc3ccccc3c2)c(Oc2c(Cl)cc(-n3ncc(=O)[nH]c3=O)cc2Cl)n[nH]1 [Compound 92-A]
3. CC(C)(O)c1cc(Oc2c(Cl)cc(-n3nc(N)c(=O)[nH]c3=O)cc2Cl)n[nH]c1=O [Compound 60]
4. CC1(C)CC(c2cc(Oc3c(Cl)cc(-n4nc(N)c(=O)[nH]c4=O)cc3Cl)n[nH]c2=O)CCO1 (stereo not drawn) [Compound 76]
5. Cc1cc(-n2nc(N)c(=O)[nH]c2=O)cc(Cl)c1Oc1cc(C(C)C)c(=O)[nH]n1 [Compound 37]

1: > 7.30; 2: 6.00 to 6.60; 3: 5.00 to 6.00; 4: 6.00 to 6.60; 5: 6.60 to 7.30

---

Provide the reported Emax of each item.
Biological target: THR beta (Homo sapiens, UniProt P10828)
Construct: expressed in transfected cells; host or cells: HEK293T (ATCC CRL-3216)
Sequence (P10828 1-461): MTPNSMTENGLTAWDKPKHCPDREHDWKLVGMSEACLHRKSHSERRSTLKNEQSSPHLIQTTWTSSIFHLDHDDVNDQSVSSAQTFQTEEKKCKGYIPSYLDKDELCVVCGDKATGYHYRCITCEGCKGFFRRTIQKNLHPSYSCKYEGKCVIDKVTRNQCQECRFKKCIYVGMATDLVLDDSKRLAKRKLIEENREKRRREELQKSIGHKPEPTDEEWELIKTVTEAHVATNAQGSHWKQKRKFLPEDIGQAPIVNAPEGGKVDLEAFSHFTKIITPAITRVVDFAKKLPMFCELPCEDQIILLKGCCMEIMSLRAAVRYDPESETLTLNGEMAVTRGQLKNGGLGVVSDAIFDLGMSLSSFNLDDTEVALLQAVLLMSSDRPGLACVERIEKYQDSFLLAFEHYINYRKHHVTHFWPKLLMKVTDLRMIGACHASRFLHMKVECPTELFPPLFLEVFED
Sequence (P19793 1-462 partner): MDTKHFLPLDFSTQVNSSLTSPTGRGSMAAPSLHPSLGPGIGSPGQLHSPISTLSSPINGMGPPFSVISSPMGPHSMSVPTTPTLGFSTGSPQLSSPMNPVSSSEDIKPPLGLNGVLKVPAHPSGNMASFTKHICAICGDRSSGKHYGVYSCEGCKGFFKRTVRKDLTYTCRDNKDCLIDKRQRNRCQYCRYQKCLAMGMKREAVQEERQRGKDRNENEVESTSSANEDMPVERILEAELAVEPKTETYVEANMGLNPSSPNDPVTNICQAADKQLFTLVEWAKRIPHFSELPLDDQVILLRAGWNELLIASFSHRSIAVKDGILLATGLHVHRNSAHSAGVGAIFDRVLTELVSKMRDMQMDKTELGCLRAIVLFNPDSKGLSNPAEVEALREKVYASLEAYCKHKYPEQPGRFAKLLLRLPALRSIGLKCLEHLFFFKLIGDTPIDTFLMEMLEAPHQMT
Assay: HEK293T THR beta/RXR luciferase reporter assay (Assay 2)
Type: cell-based
Settings: HEK-293T; Table 5; Assay 2; THRβ; read-out: Activity category Assay 2 THRβ (Emax)

Before answering, review these 5 worked examples.
CC1(C)CC(c2cc(Oc3c(Cl)cc(-n4nc(N)c(=O)[nH]c4=O)cc3Cl)n[nH]c2=O)CCO1 (stereo not shown) = 50 to 75%
CC1(C)C(=O)Nc2ccc(Oc3c(Cl)cc(-n4nc(N)c(=O)[nH]c4=O)cc3Cl)cc21 = > 75%
CC(C)(C)c1cc(Oc2c(Cl)cc(-n3nc(N)c(=O)[nH]c3=O)cc2Cl)n[nH]c1=O = > 75%
CC(C)c1cc(=O)[nH]c2ccc(Oc3c(Cl)cc(-n4nc(N)c(=O)[nH]c4=O)cc3Cl)cc12 = 50 to 75%
CC(c1cc(Oc2c(Cl)cc(-n3nc(N)c(=O)[nH]c3=O)cc2Cl)n[nH]c1=O)C1CC(F)(F)C1 (single isomer, unassigned) [Compound 61-A] = > 75%

I'm hoping you can list Emax for every compound here, please.
1. Cc1cc(-n2nc(N)c(=O)[nH]c2=O)cc(C)c1Cc1ccc2[nH]c(=O)n(C(C)C)c2c1
2. Nc1nn(-c2cc(Cl)c(Oc3cc(C4CCc5ccccc54)c(=O)[nH]n3)c(Cl)c2)c(=O)[nH]c1=O (stereo not shown)
3. C=C(C)c1cc(Oc2c(Cl)cc(-n3nc(N)c(=O)[nH]c3=O)cc2Cl)n[nH]c1=O
4. CC(C)c1c[nH]c2ccc(Oc3c(Cl)cc(-n4nc(C#N)c(=O)[nH]c4=O)cc3Cl)cc12
5. O=c1cnn(-c2cc(Cl)c(Oc3cc(-c4ccc5c(c4)CCCC5)c(=O)[nH]n3)c(Cl)c2)c(=O)[nH]1
6. CC1(C)CC(c2cc(Oc3c(Cl)cc(-n4nc(N)c(=O)[nH]c4=O)cc3Cl)n[nH]c2=O)C1
7. Nc1nn(-c2cc(Cl)c(Oc3n[nH]c(=O)cc3-c3cc4ccccc4cn3)c(Cl)c2)c(=O)[nH]c1=O

1: > 75%; 2: 50 to 75%; 3: 50 to 75%; 4: > 75%; 5: 50 to 75%; 6: 50 to 75%; 7: 50 to 75%

Fill in the blank: the reported Emax of Nc1nn(-c2cc(Cl)c(Oc3cc(-c4ccc5ncccc5c4)c(=O)[nH]n3)c(Cl)c2)c(=O)[nH]c1=O is ____. < 50%

---

Target: THR beta (Homo sapiens, UniProt P10828)
Construct: expressed in transfected cells; host or cells: HEK293T (ATCC CRL-3216)
Assay: HEK293T THR beta/RXR luciferase reporter assay (Assay 2)
Assay type: cell-based
Settings: THR-beta, HEK293T reporter assay; read-out: Activity category Assay 2 (EC50, THR-beta agonist)
pEC50: −log10 of the molar value.
readout name: pEC50

Before answering, review these 5 worked examples.
N#CC1CCC1c1cc(Oc2c(Cl)cc(-n3nc(N)c(=O)[nH]c3=O)cc2Cl)n[nH]c1=O (stereo not shown) [Compound 104] = 5.00 to 6.00
C[C@H]1C[C@@H](c2cc(Oc3c(Cl)cc(-n4nc(N)c(=O)[nH]c4=O)cc3Cl)n[nH]c2=O)C1 (single isomer, unassigned) [Compound 86-B] = 6.00 to 6.60
CC(C)c1cc(Oc2c(Cl)cc(-c3nn(C(F)F)c(=O)[nH]c3=O)cc2Cl)n[nH]c1=O [Compound 28] = 6.00 to 6.60
CCc1cccc(-c2cc(Oc3c(Cl)cc(-n4nc(N)c(=O)[nH]c4=O)cc3Cl)n[nH]c2=O)c1 [Compound 71] = > 7.30
CC(c1cc(Oc2c(Cl)cc(-n3nc(N)c(=O)[nH]c3=O)cc2Cl)n[nH]c1=O)C1CC(F)(F)C1 (single isomer, unassigned) [Compound 61-A] = > 7.30

I'm hoping you can list pEC50 for every compound here, please.
1. Cc1cccc(-c2cc(Oc3c(Cl)cc(-n4nc(N)c(=O)[nH]c4=O)cc3Cl)n[nH]c2=O)c1 [Compound 70]
2. Cc1cc(-c2cc(Oc3c(Cl)cc(-n4nc(N)c(=O)[nH]c4=O)cc3Cl)n[nH]c2=O)ccc1Cl [Compound 116]

1: > 7.30; 2: 6.60 to 7.30
